Target: ZNF217 (UniProt O75362)
Sequence (O75362 whole entry, looked up): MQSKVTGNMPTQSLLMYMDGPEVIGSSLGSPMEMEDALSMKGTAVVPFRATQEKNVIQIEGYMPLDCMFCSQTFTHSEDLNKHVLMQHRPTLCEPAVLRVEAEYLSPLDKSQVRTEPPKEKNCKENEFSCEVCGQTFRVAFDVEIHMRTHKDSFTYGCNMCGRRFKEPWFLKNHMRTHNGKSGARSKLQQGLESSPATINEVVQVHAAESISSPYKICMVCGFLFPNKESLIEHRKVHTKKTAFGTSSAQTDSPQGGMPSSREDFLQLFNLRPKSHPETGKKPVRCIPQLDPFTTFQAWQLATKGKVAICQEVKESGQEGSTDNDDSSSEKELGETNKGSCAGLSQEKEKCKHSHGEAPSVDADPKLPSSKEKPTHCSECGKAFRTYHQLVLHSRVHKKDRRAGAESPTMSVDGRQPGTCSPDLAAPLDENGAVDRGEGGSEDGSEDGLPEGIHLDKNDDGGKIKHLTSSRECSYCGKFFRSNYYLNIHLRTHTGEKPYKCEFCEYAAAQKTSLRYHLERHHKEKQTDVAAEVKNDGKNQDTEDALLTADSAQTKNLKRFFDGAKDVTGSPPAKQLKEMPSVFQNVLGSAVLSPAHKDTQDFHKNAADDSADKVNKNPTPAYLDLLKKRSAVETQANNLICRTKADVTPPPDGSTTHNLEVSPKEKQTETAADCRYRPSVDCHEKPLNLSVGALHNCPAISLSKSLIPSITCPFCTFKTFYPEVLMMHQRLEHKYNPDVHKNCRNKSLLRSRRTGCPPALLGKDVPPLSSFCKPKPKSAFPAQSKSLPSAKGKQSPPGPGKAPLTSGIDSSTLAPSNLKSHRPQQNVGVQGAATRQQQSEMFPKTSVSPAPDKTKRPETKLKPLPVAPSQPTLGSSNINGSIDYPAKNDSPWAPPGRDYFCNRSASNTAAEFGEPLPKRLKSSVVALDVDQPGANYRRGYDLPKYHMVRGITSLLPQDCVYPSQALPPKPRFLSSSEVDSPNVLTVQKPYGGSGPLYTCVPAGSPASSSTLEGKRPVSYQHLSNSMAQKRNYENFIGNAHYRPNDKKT
Assay: log2 fold change, soluble protein after heating vs DMSO (PISA); higher = thermal stabilisation; K562 cells, 10 uM, 30 min; active = over 0.2 and 3.5 SD of the protein, either way, in both replicates (recomputed)
Of roughly 7,900 targets only a part is listed; those with a hit were picked by preference. About 0.6% of all pairs of compound and target were hits.
Outcome measure: log2 fold change
Format: numeric value only, no unit, no commentary.

### Prompt Consider the compound `Cc1cc(Nc2cc(N3CCN(C)CC3)nc(Sc3ccc(NC(=O)C4CC4)cc3)n2)n[nH]1` and give its measured log2 fold change.
### Response -0.07

### Prompt Consider the compound `C#Cc1cccc(Nc2ncnc3cc(OCCOC)c(OCCOC)cc23)c1` and give its measured log2 fold change.
### Response 0.001

### Prompt Consider the compound `Cn1cc(-c2ccc3nnc(C(F)(F)c4ccc5ncccc5c4)n3n2)cn1` and give its measured log2 fold change.
### Response -0.01

### Prompt Consider the compound `COC(=O)[C@H](CCSC)NC(=O)c1ccc(NC[C@@H](N)CS)cc1-c1ccccc1` and give its measured log2 fold change.
### Response -0.067

### Prompt Consider the compound `O=C(CCCCCCNC(=O)c1cnc(N(c2ccccc2)c2ccccc2Cl)nc1)NO` and give its measured log2 fold change.
### Response -0.004

### Prompt Consider the compound `CO[C@H]1C[C@@H]2CC[C@@H](C)[C@@](O)(O2)C(=O)C(=O)N2CCCC[C@H]2C(=O)O[C@H]([C@H](C)C[C@@H]2CC[C@H](n3cnnn3)[C@H](OC)C2)CC(=O)[C@H](C)/C=C(\C)[C@@H](O)[C@@H](OC)C(=O)[C@H](C)C[C@H](C)/C=C/C=C/C=C/1C` and give its measured log2 fold change.
### Response -0.007

### Prompt Consider the compound `Cn1cc(-c2ccc3c(c2)CCN3C(=O)Cc2cccc(C(F)(F)F)c2)c2c(N)ncnc21` and give its measured log2 fold change.
### Response 0.142
